Target: Stromelysin-1 (Homo sapiens)
Sequence (P08254 whole entry): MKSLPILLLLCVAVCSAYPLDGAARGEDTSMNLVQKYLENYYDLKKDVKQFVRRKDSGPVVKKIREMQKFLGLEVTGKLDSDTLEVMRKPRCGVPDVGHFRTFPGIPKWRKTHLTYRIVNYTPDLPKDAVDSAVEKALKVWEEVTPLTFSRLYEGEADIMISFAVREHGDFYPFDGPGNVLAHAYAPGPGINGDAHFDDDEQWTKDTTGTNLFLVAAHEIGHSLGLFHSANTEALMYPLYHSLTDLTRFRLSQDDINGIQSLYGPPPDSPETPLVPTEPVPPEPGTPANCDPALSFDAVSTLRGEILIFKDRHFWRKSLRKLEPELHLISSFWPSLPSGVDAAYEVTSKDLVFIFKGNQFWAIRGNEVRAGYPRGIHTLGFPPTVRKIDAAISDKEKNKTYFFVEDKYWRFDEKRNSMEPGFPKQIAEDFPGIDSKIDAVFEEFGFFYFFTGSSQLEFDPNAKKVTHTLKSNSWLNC
Experiment: Binding to stromelysin (MMP-3) in place of acetohydroxamic acid.
Set-up: species or system Rattus norvegicus
Kd values for the compounds below.

Solved entries:
| compound | Kd |
| --- | --- |
| O=C(NO)c1cccc2ccccc12 | 0.05 mM |
| O=C(O)c1ccccc1O | > 25 mM |
| NC(=O)NO [HYDROXYUREA] | > 25 mM |

Then this compound:
Q: Which Kd value belongs to NC(=O)c1ccccc1O [SALICYLAMIDE] ?
A: > 25 mM

----------
Assay: Half-life period was determined
Type: ADME
measurementName: half-life (h)
Write the answer as a number in h, unit excluded.

Q: Which half-life value belongs to N#Cc1ccc(-c2ccc(OCCOc3ccc4ccccc4c3C(=O)NO)cc2)cc1 ?
A: 2

----------
Assay: Cmax was determined
Assay type: ADME, organism-based
Conditions: in vivo
measurementName: Cmax (µM)
Write the answer as a number in µM, unit excluded.

Q: Which Cmax value belongs to N#Cc1ccc(-c2ccc(OCCOc3ccc4ccccc4c3C(=O)NO)cc2)cc1 ?
A: 28

----------
Target: Stromelysin-1 (Homo sapiens)
Experiment: Binding to stromelysin (MMP-3) in place of acetohydroxamic acid.
Set-up: species or system Rattus norvegicus
pKd: −log10 of the molar value.
measurementName: pKd

Solved entries:
| compound | pKd |
| --- | --- |
| O=C(NO)c1ccccc1 [BENZOHYDROXAMATE] | 2.15 |
| CCOC(=O)NO [ETHYL HYDROXYCARBAMATE] | < 1.60 |
| CC(=O)c1ccccn1 | < 1.60 |
| CCOC(=O)CC(=O)C(F)(F)F | < 1.60 |

Then this compound:
Q: Which pKd value belongs to O=C(CC(=O)C(F)(F)F)c1ccccc1 ?
A: < 1.60
